Please respond with reported GI50 for every item in the list.
Test system: SNB-19
Assay: NCI tumour cell line growth inhibition, 48 h
Activity calls are given as the source filed them. Rule as the data show it: active = GI50 up to about 1.1 µM and inactive = higher.

Record GI50 for all entries; do not skip any.
1. CCOC(=O)c1cn2c(n1)sc1cc(C)c(C)cc12
2. COC(=O)C(=O)C(C#N)c1cccc2ccccc12 (centres undefined)
3. COc1ccc2c(c1)/C(=C\c1c(C)nc3sc(C)cn13)C(=O)N2

-- reply
1: 20 µM (inactive); 2: > 100 µM (inactive); 3: 3.33 µM (inactive)

Record GI50 for all entries; do not skip any.
1. CCSc1n/c(=C\c2ccc(N(C)C)cc2)c2nnnn12
2. Cn1c(N(CCO)CCO)cnc1[N+](=O)[O-]
3. O=C(NCC(=O)N1CCOC1=O)OCc1ccccc1
4. O=C1Nc2ccccc2C(=O)O/C(Cc2ccccc2)=N\c2ccccc21
5. CCc1cn2c(/C=N/N=C(N)N)c(-c3cc(C)c(Cl)cc3Cl)nc2s1
6. Nc1nnc2c(-c3ccccc3)n[nH]c2n1

-- reply
1: > 100 µM (inactive); 2: > 100 µM (inactive); 3: > 100 µM (inactive); 4: > 100 µM (inactive); 5: 1.54 µM (inactive); 6: 57.1 µM (inactive)

Record GI50 for all entries; do not skip any.
1. Cn1c(C(O)C2(c3cccnc3)SCCCS2)cc2ccccc21 (centres undefined)
2. O=C1/C(=C\c2ccc(-c3ccc(Cl)cc3Cl)o2)SC2NC(COc3ccc(Cl)cc3)=NN12 (centres undefined)
3. NC1CCC(c2cc3ccccc3s2)(N2CCCCC2)CC1 (centres undefined)
4. CC1CCSC(N(C(=O)N(C)c2ccccc2)c2ccccc2)=N1 (centres undefined)
5. COS(=O)c1cc(Cl)cc(Cl)c1O (centres undefined)

-- reply
1: > 100 µM (inactive); 2: 53.7 µM (inactive); 3: 12.5 µM (inactive); 4: > 100 µM (inactive); 5: > 100 µM (inactive)
